Kd listing for selected molecules.
- assayNotes: IASyS optical biosensor, AVR binding in a biotin cuvette
- protocolConditions: biotin cuvette, 20.0° C.; read-out: Kd calculated from the equilibrium response data
Give just the number in nM; leave the unit off.

Some entries whose results are on file:
molecule: AVR2: Recombinant chicken avidin-related protein 2, produced in Sf9 insect cells (protein, UniProt P56732 25-150, looked up) Avidin-related protein 2: ARKCSLTGEWDNDLGSIMTIGAVNDNGEFDGTYITAVADNPGNITLSPLLGIQHKRASQPTFGFTVHWNFSESTSVFVGQCFVDRSGKEVLKTKWLQRLAVDDISDDWIATRVGNNDFTRQHTVEE
measurementLabel: Kd
valueObserved: 1700
--
molecule: AVR1: Recombinant chicken avidin-related protein 1, produced in Sf9 insect cells (protein, UniProt O13153 25-150, looked up) Avidin-related protein 1: ARKCSLTGKWDNDLGSIMTIGAVNDNGEFNGTYITAVADNPGNITRSPLLGIQHKRACQPTFGFTVHWNFSESTSVFVGQCFVDKSGKEVLKTKWLQRLAVDDISDDWKATRVGNNDFTRQRTVEE
measurementLabel: Kd
valueObserved: 100

Next up:
Challenge: Supply Kd value. Item: AVR7: Recombinant chicken avidin-related protein 7, produced in Sf9 insect cells (protein, UniProt P56736 25-150, looked up) Avidin-related protein 7: ARKCSLTGEWDNNLGSNMTIGAVNDNGEFNGTYITAVADNPGNIKLSPLLGIQHKRACQPTFGFTVHWNFSESTSVFVGQCFIDRSGKEVLKTKWLQRLAVDDISDDWKATRVGYNNFTRQRTVEE
Response given: 4.5
